// provenance: patent US20230277625A1

Biological target: T1, Mouse IL-18Rα ectodomain (amino acids 19-329), biotinylated (mouse, UniProt Q61098 19-329, biotin on the AviTag (BirA ligase))
T1 construct: range 19-329; Secreted from Expi293 cells (H7 signal peptide removed); also called mIL-18Rα; mIL18Ra
T1 sequence: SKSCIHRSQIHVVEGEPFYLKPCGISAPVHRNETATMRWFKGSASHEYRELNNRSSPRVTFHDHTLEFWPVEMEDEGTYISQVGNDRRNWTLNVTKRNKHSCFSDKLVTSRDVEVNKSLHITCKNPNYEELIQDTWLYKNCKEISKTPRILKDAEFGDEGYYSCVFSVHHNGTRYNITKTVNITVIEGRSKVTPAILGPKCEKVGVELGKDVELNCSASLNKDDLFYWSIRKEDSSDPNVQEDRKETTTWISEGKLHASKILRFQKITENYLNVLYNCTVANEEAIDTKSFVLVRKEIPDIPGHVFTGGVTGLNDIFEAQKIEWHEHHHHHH
Assay: SPR (Biacore T100), receptor captured via biotin, IL-18 as analyte
Friendly reminder: Kd below 700 pM is yes, at or above is no.

binder	assigned.label
SEQ ID NO: 61 (murine DR-IL-18 variant mCS2) (ligand, Engineered variant) HFGRLHCTTAVIRNINDQVLFVDKRQPVFEDMTDIDQSASEPQTRLIIYAYGDSRARGKAVTLSVKDSKMSTLSCKNKIISFEEMDPPENIDDIQSDLIFFQKRVPGHNKMEFESSLYEGHFLACQKEDDAFKLILKKKDENGDKSVMFTLTNLHQS	yes
SEQ ID NO: 64 (murine DR-IL-18 variant mE8) (ligand, Engineered variant) NFGRLHCTTAVIRNINDQVLFVDKRQPVFEDMTDIDQSASEPQTRLIIYVYTDGRRRGKAVTLSVKDSKMSTLSCKNKIISFEEMDPPENIDDIQSDLIFFQKKVPGHDKMEFESSLYEGHFLACQKEDDAFKLILKKKDENGDKSVMFTLTNLHQS	no
SEQ ID NO: 70 (murine DR-IL-18 variant mA7) (ligand, Engineered variant) YFGRLHCTTAVIRNINDQVLFVDKRQPVFEDMTDIDQSASEPQTRLIIYAYGDNRVRGKAVTLSVKDSKMSTLSCKNKIISFEEMDPPENIDDIQSDLIFFQKRVPGHNKMEFESSLYEGHFLACQKEDDAFKLILKKKDENGDKSVMFTLTNLHQS	yes
SEQ ID NO: 60 (murine DR-IL-18 variant mCS1) (ligand, Engineered variant) NFGRLHCTTAVIRNINDQVLFVDKRQPVFEDMTDIDQSASEPQTRLIIYGYADSRVRGKAVTLSVKDSKMSTLSCKNKIISFEEMDPPENIDDIQSDLIFFQKRVPGHNKMEFESSLYEGHFLACQKEDDAFKLILKKKDENGDKSVMFTLTNLHQS	yes
SEQ ID NO: 62 (murine DR-IL-18 variant mC1) (ligand, Engineered variant) NFGRLHCTTAVIRNINDQVLFVDKRQPVFEDMTDIDQSASEPQTRLIIYAYVDRRLRGKAVTLSVKDSKMSTLSCKNKIISFEEMDPPENIDDIQSDLIFFQKKVPGHNKMEFESSLYEGHFLACQKEDDAFKLILKKKDENGDKSVMFTLTNLHQS	no
Mouse Interleukin-18 (mature form), wild type (ligand, also called mIL-18 WT; WT mIL-18) NFGRLHCTTAVIRNINDQVLFVDKRQPVFEDMTDIDQSASEPQTRLIIYMYKDSEVRGLAVTLSVKDSKMSTLSCKNKIISFEEMDPPENIDDIQSDLIFFQKRVPGHNKMEFESSLYEGHFLACQKEDDAFKLILKKKDENGDKSVMFTLTNLHQS	yes
